# system name: Poly [ADP-ribose] polymerase 1 (Homo sapiens)
# Sequence (P09874 whole entry): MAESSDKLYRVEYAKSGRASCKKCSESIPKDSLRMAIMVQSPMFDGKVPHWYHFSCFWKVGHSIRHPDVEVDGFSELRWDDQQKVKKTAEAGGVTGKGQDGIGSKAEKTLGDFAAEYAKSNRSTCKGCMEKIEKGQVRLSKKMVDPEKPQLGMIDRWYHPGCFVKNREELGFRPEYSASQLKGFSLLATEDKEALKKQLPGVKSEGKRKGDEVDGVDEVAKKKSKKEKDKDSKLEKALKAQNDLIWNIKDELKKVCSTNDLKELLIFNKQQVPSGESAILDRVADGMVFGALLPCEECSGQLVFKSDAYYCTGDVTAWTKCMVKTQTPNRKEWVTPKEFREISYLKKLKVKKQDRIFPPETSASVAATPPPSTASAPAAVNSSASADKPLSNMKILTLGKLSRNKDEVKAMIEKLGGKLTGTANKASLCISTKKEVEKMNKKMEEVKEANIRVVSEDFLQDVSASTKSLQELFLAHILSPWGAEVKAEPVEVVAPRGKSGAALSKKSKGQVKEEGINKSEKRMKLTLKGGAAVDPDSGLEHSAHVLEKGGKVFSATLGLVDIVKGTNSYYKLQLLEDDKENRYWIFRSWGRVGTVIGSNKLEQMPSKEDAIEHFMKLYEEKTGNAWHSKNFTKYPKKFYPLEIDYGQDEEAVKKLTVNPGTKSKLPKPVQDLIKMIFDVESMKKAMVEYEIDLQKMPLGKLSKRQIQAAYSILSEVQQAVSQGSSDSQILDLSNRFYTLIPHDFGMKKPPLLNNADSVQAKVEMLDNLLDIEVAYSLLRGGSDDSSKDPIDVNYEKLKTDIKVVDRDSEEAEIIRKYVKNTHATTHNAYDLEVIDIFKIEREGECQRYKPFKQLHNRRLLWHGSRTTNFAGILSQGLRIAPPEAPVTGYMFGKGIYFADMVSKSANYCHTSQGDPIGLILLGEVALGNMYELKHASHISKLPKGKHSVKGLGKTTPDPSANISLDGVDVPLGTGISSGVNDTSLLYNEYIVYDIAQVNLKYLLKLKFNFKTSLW
pIC50: −log10 of the molar value.
# binarize pIC50: threshold 7 inclusive, high side t, low side f

compound: NC(=O)c1ccccc1 [BENZAMIDE]
system name: Poly [ADP-ribose] polymerase 1 (Homo sapiens)
class: f
//
compound: CC(C)(C)OC(=O)N1C[C@H]2C[C@@H]1CN2c1ccc2[nH]c(=O)c3ccccc3c2n1
system name: Poly [ADP-ribose] polymerase 1 (Homo sapiens)
class: f
//
compound: CCN(CC)CCNc1ccc2[nH]c(=O)c3ccccc3c2n1
system name: Poly [ADP-ribose] polymerase 1 (Homo sapiens)
class: f
//
compound: Oc1nc2ccc(N3C[C@H]4C[C@@H]3CN4)nc2c2ccccc12
system name: Poly [ADP-ribose] polymerase 1 (Homo sapiens)
class: t
//
compound: CS(=O)(=O)O.Oc1nc2ccc(N3CCNCC3)nc2c2ccccc12
system name: Poly [ADP-ribose] polymerase 1 (Homo sapiens)
class: t
//
compound: CC(C)N1CCN(CC(=O)Nc2ccc3nc(O)c4ccccc4c3n2)CC1
system name: Poly [ADP-ribose] polymerase 1 (Homo sapiens)
class: f
